Assign self-splicing fitness (ln) to each entry below.
method-description: self-splicing fitness, log relative to wild type (ln ratio); higher = more splicing; Tetrahymena group I intron in knt gene, E. coli kanamycin selection, DiMSum; sequences stand for … in CUCUCU…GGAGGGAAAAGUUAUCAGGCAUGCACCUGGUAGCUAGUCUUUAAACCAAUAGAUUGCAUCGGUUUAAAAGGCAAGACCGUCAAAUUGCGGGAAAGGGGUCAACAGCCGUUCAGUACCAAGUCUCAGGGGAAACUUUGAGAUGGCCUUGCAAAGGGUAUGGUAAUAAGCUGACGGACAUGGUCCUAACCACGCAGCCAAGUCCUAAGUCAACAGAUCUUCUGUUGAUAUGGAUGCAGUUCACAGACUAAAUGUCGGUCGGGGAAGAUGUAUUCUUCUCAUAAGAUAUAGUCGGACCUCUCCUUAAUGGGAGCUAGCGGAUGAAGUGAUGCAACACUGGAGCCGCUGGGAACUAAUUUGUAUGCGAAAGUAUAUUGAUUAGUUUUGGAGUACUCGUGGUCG;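 further: selection with 25 µg/mL kanamycin versus none on LB agar overnight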
condition-description: 30 °C
Give bare numbers.

GGCGAGCAAUAUUACGGCGG | -2
ACACAGCAAUAUUACGCCAU | -3.18
UGGAAGCAAUAUUACGCAAC | -3.31
GGAUAGCAAUAUUACGUUGC | -4.63
GACGAGCAAUAUUACGCGGA | -2.74

Provide the reported self-splicing fitness (ln) of each entry below, same order.
1. GAGAAGCAAUAUUACGCAAC
2. AAGAAGCAAUAUUACGCACG
3. GCCAAGCAAUAUUACGCGGG
4. CGUUAGCAAUAUUACGUGCA
5. UAAGAGCAAUAUUACGUGCA
6. CGGCAGCAAUAUUACGGCUC
7. CACUAGCAAUAUUACGAAGG
8. CCUCAGCAAUAUUACGCAUG

Reply:
1: -1.48; 2: -1.26; 3: -3.54; 4: -1.38; 5: -2.09; 6: -0.945; 7: -1.65; 8: -1.83

Provide the reported self-splicing fitness (ln) of each entry below, same order.
1. UCCUAGCAAUAUUACGAGAU
2. GUCUAGCAAUAUUACGAAGG
3. GGCAAGCAAUAUUACGAAAG
4. AGGAAGCAAUAUUACGGAGU

Reply:
1: -2.85; 2: -2.34; 3: -2.97; 4: -2.89

Provide the reported self-splicing fitness (ln) of each entry below, same order.
1. GUUCAGCAAUAUUACGCGUA
2. CCCUAGCAAUAUUACGGAGU
3. CGCGAGCAAUAUUACGAGCC
4. GAUGAGCAAUAUUACGGUCG
5. UGCCAGCAAUAUUACGAUCU
6. CGAUAGCAAUAUUACGCAAU
7. GAUUAGCAAUAUUACGCAAC

Reply:
-0.404
-4.58
-3.49
-2.37
-2.48
-3.43
-3.22

Provide the reported self-splicing fitness (ln) of each entry below, same order.
1. GGCGAGCAAUAUUACGCACU
2. ACUUAGCAAUAUUACGCGCG

Reply:
-2.83
-1.56

====

method-description: self-splicing fitness, log relative to wild type (ln ratio); higher = more splicing; Tetrahymena group I intron in knt gene, E. coli kanamycin selection, DiMSum; sequences stand for … in CUCUCU…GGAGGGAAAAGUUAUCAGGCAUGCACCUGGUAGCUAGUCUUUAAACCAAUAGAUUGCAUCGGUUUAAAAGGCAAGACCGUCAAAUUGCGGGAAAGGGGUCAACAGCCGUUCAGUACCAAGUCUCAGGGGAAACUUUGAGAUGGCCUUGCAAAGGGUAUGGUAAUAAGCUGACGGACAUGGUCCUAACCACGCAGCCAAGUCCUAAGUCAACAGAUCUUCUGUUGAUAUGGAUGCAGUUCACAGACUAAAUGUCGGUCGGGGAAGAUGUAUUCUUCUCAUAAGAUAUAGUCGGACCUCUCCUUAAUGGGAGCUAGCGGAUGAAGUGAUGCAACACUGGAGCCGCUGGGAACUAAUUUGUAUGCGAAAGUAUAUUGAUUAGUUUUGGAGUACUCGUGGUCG
condition-description: 37 °C
Class (required): determined from self-splicing fitness (ln); valid ranges are bucket A: < -2; bucket B: ≥ -2 and < -0.7; bucket C: ≥ -0.7

Reference set (6 entries):
UUGAAGCAAUAUUACGUAGA | bucket B
GUGGAGCAAUAUUACGGAGG | bucket B
CACAAGCAAUAUUACGGGAC | bucket A
UCCAAGCAAUAUUACGACUA | bucket C
AGGGAGCAAUAUUACGGCCU | bucket B
CGGAAGCAAUAUUACGUUAA | bucket A

Query: Form field 'band' for "UAGAAGCAAUAUUACGAAUC"
Reply: bucket A

====

method-description: self-splicing fitness, log relative to wild type (ln ratio); higher = more splicing; Tetrahymena group I intron in knt gene, E. coli kanamycin selection, DiMSum; sequences stand for … in CUCUCU…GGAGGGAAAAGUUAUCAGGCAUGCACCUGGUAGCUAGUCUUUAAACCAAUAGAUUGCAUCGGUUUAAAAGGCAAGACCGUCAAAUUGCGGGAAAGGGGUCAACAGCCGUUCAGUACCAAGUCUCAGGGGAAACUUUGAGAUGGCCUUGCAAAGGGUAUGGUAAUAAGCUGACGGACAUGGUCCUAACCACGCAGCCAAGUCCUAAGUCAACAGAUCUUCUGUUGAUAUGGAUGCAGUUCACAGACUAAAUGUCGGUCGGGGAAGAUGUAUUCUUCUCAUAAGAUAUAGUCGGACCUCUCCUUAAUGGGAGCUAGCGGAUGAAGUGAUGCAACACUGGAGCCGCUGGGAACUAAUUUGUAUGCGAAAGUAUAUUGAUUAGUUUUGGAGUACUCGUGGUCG
condition-description: 37 °C
Assign self-splicing fitness (ln) to each entry below.
Give bare numbers.

Please review the entries below; each comes with its answer.
ACCCAGCAAUAUUACGUCCU | -0.51
CAUAAGCAAUAUUACGUACU | -2
ACAUAGCAAUAUUACGGUUG | -1.95

Query: self-splicing fitness (ln) for "AGUUAGCAAUAUUACGGUUG" ?
Reply: -1.99

====

method-description: self-splicing fitness, log relative to wild type (ln ratio); higher = more splicing; Tetrahymena group I intron in knt gene, E. coli kanamycin selection, DiMSum; sequences stand for … in CUCUCU…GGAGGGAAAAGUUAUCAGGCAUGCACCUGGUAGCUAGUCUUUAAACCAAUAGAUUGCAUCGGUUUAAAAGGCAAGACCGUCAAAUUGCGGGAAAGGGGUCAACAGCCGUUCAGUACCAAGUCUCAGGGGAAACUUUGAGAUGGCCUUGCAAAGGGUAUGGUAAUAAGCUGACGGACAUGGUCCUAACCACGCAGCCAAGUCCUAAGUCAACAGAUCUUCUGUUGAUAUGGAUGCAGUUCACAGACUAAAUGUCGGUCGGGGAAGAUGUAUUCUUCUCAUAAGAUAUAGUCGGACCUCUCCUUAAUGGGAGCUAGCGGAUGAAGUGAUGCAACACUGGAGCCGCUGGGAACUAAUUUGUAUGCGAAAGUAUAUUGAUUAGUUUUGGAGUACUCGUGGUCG
condition-description: 30 °C
readout: self-splicing fitness (ln)
Numbers only.

GUACAGCAAUAUUACGAUUG | -5.06

Provide the reported self-splicing fitness (ln) of each entry below, same order.
1. UCGCAGCAAUAUUACGAGUU
2. ACAUAGCAAUAUUACGCGGA
3. GUUCAGCAAUAUUACGUCAA

Reply:
1. -4.47
2. -2.07
3. -1.86

====

Assign self-splicing fitness (ln) to each entry below.
method-description: self-splicing fitness, log relative to wild type (ln ratio); higher = more splicing; Tetrahymena group I intron in knt gene, E. coli kanamycin selection, DiMSum; sequences stand for … in CUCUCU…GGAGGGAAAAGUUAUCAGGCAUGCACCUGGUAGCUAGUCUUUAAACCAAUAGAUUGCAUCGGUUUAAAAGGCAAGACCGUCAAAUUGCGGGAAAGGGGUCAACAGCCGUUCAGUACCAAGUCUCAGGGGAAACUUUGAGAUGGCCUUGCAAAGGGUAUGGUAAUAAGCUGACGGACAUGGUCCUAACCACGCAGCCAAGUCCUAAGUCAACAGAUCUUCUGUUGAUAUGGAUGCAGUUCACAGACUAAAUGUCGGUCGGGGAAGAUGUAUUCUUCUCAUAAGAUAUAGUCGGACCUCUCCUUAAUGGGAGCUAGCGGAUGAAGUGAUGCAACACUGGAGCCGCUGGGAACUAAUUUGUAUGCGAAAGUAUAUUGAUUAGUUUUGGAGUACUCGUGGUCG
condition-description: 37 °C
Give bare numbers.

Please review the entries below; each comes with its answer.
UGAGAGCAAUAUUACGACUC | -2.73
UGGCAGCAAUAUUACGUAGU | -1.8
ACAGAGCAAUAUUACGUUAA | -2.21
UCUCAGCAAUAUUACGUAUA | -1.32
GUUAAGCAAUAUUACGCCAC | -3.27
AGACAGCAAUAUUACGAUGG | -2.21
UCAAAGCAAUAUUACGCGUA | -0.355
ACUCAGCAAUAUUACGGCUA | 0.149

Continue with the sequence presented below.
Query: self-splicing fitness (ln) for "GACCAGCAAUAUUACGCUCC" ?
Reply: -1.83
